Target: Lethal factor (Bacillus anthracis) (UniProt P15917)
Sequence (P15917 whole entry, looked up): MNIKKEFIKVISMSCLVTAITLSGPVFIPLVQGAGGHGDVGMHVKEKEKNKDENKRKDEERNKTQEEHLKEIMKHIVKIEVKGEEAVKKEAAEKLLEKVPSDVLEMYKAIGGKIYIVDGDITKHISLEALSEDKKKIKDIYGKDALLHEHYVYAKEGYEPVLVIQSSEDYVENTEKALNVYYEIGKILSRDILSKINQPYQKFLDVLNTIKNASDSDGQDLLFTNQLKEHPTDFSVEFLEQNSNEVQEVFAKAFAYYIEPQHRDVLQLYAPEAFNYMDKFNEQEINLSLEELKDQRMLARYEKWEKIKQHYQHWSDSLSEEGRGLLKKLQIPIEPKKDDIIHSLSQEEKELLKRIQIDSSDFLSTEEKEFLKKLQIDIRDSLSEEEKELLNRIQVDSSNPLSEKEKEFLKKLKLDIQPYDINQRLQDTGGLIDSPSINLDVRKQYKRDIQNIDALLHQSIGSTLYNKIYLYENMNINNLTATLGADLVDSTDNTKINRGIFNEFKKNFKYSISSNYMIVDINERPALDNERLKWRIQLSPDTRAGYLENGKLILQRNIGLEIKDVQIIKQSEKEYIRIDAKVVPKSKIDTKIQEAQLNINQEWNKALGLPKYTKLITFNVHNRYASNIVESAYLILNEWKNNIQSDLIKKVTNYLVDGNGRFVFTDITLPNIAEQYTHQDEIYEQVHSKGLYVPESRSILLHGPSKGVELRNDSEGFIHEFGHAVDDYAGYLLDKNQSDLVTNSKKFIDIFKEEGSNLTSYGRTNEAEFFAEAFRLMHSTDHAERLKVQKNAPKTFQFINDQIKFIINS
Assay: anthrax lethal factor cleavage blockers – biochemical, multiplex microsphere, cherry pick 1, confirmation (AID 602142)
Conditions: multiplex microsphere protease cleavage assay, LF; at 10 µM; hits give high values
This is one part of the list.
quantity_kind: inhibition (%)
Write the value in % as a bare number.

Q: Consider the molecule CC1CCN(C(=O)c2ccc(S(=O)(=O)Cc3cc(F)ccc3F)c([N+](=O)[O-])c2)CC1 and give its recorded inhibition.
A: 1.6

Q: Consider the molecule Cc1ccc(-c2nc(-c3cccnc3)sc2CC(=O)Nc2ccc(C)c(Cl)c2)cc1 and give its recorded inhibition.
A: 1.7

Q: Consider the molecule Clc1ccc(-c2ncc3ccccn23)c(Cl)c1 and give its recorded inhibition.
A: 2.1

Just for reference, PubChem BioAssay AID602142 is where these values come from.
